- TEST SYSTEM: Alpha-2A adrenergic receptor (Homo sapiens, UniProt P08913)
- Sequence (P08913 whole entry): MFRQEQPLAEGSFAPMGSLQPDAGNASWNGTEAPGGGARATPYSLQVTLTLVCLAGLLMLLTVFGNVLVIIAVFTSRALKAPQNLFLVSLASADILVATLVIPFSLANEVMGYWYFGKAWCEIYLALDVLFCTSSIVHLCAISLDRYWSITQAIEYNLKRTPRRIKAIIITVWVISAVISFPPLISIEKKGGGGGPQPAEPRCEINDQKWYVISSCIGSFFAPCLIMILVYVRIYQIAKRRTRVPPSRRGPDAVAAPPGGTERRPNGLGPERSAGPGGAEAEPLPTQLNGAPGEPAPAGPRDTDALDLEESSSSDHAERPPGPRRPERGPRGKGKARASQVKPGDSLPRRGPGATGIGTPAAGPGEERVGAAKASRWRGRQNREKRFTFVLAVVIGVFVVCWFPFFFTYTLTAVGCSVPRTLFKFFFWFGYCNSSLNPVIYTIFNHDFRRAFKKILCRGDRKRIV
- Assay type: cell membranes, Sf9, Membrane
- CONDITION INFO: read-out: IC50
pIC50: −log10 of the molar value.
compounds and their reported pIC50
VALUE TYPE: pIC50

- COMPOUND: "Oc1c(Cl)cc(Cl)c(Cl)c1Cc1c(O)c(Cl)cc(Cl)c1Cl [HEXACHLOROPHENE]"
  OBSERVED RESULT: 5.26
- COMPOUND: "CCN(CC)CCNC(=O)c1cc(S(C)(=O)=O)ccc1OC [TIAPRIDE]"
  OBSERVED RESULT: 5.68
- COMPOUND: "Fc1ccc(C(c2ccc(F)cc2)N2CCN(C/C=C/c3ccccc3)CC2)cc1 [FLUNARIZINE]"
  OBSERVED RESULT: 6.24
- COMPOUND: "CN(C/C=C/C#CC(C)(C)C)Cc1cccc2ccccc12 [TERBINAFINE]"
  OBSERVED RESULT: 5.24
- COMPOUND: "C[C@@H](CO)NC(=O)[C@@H]1C=C2c3cccc4[nH]cc(c34)C[C@H]2N(C)C1 [ERGONOVINE]"
  OBSERVED RESULT: 5.77
- COMPOUND: "CO[C@@H]1[C@@H](OC)[C@H](C)[C@@](O)(CC(=O)O)O[C@H]1[C@H](C)[C@H]1O[C@@]2(CC[C@@](C)([C@H]3CC[C@@](C)([C@@H]4O[C@@H]([C@H]5O[C@](C)(O)[C@H](C)C[C@@H]5C)C[C@@H]4O[C@@H]4C[C@H](OC)[C@@H](OC)[C@H](C)O4)O3)O2)C[C@H](O)[C@H]1C [MADURAMICIN ACID]"
  OBSERVED RESULT: 6.74
- COMPOUND: "CC[C@H]1CN2CCc3cc(OC)c(OC)cc3[C@@H]2C[C@@H]1C[C@H]1NCCc2cc(OC)c(OC)cc21 [EMETINE]"
  OBSERVED RESULT: 7.42
- COMPOUND: "CN(C)CC[C@@H](c1ccc(Cl)cc1)c1ccccn1 [DEXCHLORPHENIRAMINE]"
  OBSERVED RESULT: 4.69
- COMPOUND: "COc1cc2nc(N3CCN(C(=O)C4CCCO4)CC3)nc(N)c2cc1OC (centres undefined) [TERAZOSIN]"
  OBSERVED RESULT: 4.86
